test system: MS2 coat protein; experiment: apparent KD of MS2 coat protein; higher = weaker reporter binding; conditions: Eterna round: R107; input ligand: theophylline 2 mM
Is apparent KD of MS2 coat protein at least 0.06 µM? Then 1. If not, -1.

[
  {
    "sequence.entry": "ACAUGAGGAUCACCCAUGUAGCGUAGGGAAGGAGCGGAAUAAAGUCCAGGUAGGUCGCCCAUAUGAUGAUCUCACUUAUUAUCGA [#12 Same State - Arginine A]",
    "assigned.class": -1
  },
  {
    "sequence.entry": "AGCAGCUGGUUUCUUUUCUUUACAGCUGCACGAGGACCGGUACGGCCGCCACUCGAGGACAUGAGGAUCACCCAUGUGCCGGUCG",
    "assigned.class": -1
  },
  {
    "sequence.entry": "ACAUGAGGAUCACCCAUGUAAUCAUCAGAAGGAGCGUGGAAUAACACAGGUAGGUCGCUGAUGUUAUAUUAAUCUUAUUCGUAAA [JR_ExcArginiA_Sub003]",
    "assigned.class": -1
  },
  {
    "sequence.entry": "AGCGUAUAGACGGAUACCAGCGCCGAUUAACAUGAGGAUCACCCAUGUAGUGUGGGUGGACGCCCUUGGCAGCCGAGUAUAGGUA [#07 Exclusion-TheophyllineB]",
    "assigned.class": 1
  },
  {
    "sequence.entry": "GGAUAGGACACGGCCGCCACUAGCUAGGAUACUAGCAACAUUUCCUCGCUUGAGGAUCACCCAAGUAGGACCGGGUGUCCUAUCG",
    "assigned.class": 1
  },
  {
    "sequence.entry": "AACAUGAGGAUCACCCAUGUACCUUUCGAUCGAGGACCGGUACGGCCGCCACUCGAAAACAUGAGGAUCACCCAUGUUCAACAGG [Tryp A SS t3]",
    "assigned.class": 1
  },
  {
    "sequence.entry": "UAGUUAGCGGCGGCCGCCACUCGAGAUAUAACAUGAUAUCAUAACAUGAGGAUCACCCAUGUCACGAGGACCGGGCCGAUCUUCA [Same State Typptophan B GF6]",
    "assigned.class": 1
  },
  {
    "sequence.entry": "AAUAAUAAGGCGGCCGCCACUACACAUGAGGAUCACCCAUGUCUCGCGGGCUUGCGUUGGGAUUGUAGGACCGGGCCAAUAAUAA [Exclusion - Tryptophan B (Freestyle 11)]",
    "assigned.class": -1
  },
  {
    "sequence.entry": "AGUCUUGAACGAAGGAGCGACGUACAUGAGGAUCACCCAUGUGGAGCGAAAGCUCCGUAACGUCAGGUAGGUCGCGUUCGAGACA [Omei Arginine B SS A v3]",
    "assigned.class": -1
  },
  {
    "sequence.entry": "AAUUCCUAACAUGAGGAUCACCCAUGUGAAGGAGCGCCGAAUAAGGCAGGUAGGUCGCACAUGGAACUGCUACGAAAGUAGAAAA [XArg-A 4 V2mod]",
    "assigned.class": -1
  }
]

### Prompt Dear colleague, could you confirm whether UUGGGUUUGUGAAGGAGCGGGAAAGAUAUAUAUUUAAUCCUAACAUGAGGAUCACCCAUGUCCCAGGUAGGUCGCGCGGGUUUGG [12.O] has apparent KD of MS2 coat protein at or above 0.06 µM?
### Response 1

### Prompt Dear colleague, could you confirm whether ACACAUGAGGAUCACCCAUGUAAAGUUGAAGGAGCGAUCAUUAGGUCAGGUAGGUCGCAGCACAUGAGGAUCACCCAUGUCGUGA [DOUBLE!!! :-D #2] has apparent KD of MS2 coat protein at or above 0.06 µM?
### Response 1
